biological target: ΔF508-CFTR channel (Homo sapiens, UniProt P13569, DEL508-508); construct: expressed in transfected cells; experiment: CFTR potentiator assays (membrane potential assay, IonWorks Quattro assay, ion transport assay); the patent does not say which one gave the values; format: cell-based; settings: cells stably expressing ΔF508-CFTR, forskolin present; values in nM; read-out: Ki values in the data measurements described above
Sequence (P13569 with tags, fused parts or gaps DEL508-508): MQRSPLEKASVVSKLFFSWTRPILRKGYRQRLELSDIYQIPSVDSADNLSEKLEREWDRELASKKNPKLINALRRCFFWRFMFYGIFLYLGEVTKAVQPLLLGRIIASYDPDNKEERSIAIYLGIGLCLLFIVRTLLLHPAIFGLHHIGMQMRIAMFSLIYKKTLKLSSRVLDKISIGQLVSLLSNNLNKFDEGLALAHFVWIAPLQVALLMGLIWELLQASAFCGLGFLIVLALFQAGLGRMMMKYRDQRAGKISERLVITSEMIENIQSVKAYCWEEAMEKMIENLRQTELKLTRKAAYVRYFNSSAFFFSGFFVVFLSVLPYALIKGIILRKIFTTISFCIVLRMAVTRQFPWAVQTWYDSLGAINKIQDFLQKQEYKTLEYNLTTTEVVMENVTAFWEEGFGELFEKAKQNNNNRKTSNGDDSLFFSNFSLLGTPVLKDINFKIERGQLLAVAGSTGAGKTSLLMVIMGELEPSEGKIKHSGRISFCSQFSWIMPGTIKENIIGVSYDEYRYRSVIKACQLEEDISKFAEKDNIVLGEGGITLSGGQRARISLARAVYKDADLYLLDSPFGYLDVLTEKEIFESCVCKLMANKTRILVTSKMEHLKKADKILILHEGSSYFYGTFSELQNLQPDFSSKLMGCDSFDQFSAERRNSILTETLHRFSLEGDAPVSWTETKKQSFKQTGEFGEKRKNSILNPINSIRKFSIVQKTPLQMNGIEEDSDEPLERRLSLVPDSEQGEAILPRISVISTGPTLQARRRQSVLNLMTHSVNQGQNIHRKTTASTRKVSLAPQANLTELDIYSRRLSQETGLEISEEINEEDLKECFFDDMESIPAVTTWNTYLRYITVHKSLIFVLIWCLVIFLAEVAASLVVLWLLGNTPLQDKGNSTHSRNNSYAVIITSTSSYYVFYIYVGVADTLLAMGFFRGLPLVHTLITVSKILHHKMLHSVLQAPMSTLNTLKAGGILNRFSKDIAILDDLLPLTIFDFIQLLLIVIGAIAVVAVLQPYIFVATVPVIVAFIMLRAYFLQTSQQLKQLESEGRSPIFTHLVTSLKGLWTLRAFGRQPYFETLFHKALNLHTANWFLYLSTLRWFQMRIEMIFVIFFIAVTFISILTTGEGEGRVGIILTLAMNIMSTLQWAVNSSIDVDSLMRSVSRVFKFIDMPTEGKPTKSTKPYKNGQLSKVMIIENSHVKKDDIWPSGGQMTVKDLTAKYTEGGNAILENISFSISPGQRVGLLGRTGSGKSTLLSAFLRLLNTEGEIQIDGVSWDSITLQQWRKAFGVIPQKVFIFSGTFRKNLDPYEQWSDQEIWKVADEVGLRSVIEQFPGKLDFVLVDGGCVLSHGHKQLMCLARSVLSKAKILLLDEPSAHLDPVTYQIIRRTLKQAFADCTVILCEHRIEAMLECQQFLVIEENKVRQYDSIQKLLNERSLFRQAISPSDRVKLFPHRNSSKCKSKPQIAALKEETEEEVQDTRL
One threshold, 10 nM, splits the recorded Ki values: lower ones are true (1), equal or higher ones are false (0).

Observe how each entry below is paired with its result.
(Q) Please indicate whether the reported Ki of Nc1cc(C(F)(F)F)c(-c2ccc(F)cc2)nc1C(=O)Nc1cc[nH]n1 is strictly below 10 nM.
(A) true (1)

(Q) Is Ki strictly under 10 nM for the entry Nc1cc(C(F)(F)F)c(-c2cccc(CN3CCCC3=O)c2)nc1C(=O)Nc1ccn[nH]1 ?
(A) false (0)

(Q) Given Cc1cc(Cl)ccc1-c1nc(C(=O)Nc2ccn[nH]2)c(N)cc1C(F)(F)F , is recorded Ki strictly lower than 10 nM?
(A) false (0)

(Q) Hi there! Is Ki for COc1ccc(-c2nc(C(=O)Nc3ccn[nH]3)c(N)cc2C(F)(F)F)cn1 below 10 nM, do you know?
(A) false (0)

(Q) Does the reported Ki of COc1ncccc1-c1nc(C(=O)Nc2cc[nH]n2)c(N)cc1C(F)(F)F stay below 10 nM?
(A) false (0)

API: the following record is the query input.
(Q) Answer whether the compound Cc1cn[nH]c1NC(=O)c1nc(C(F)(F)F)c(C(F)(F)F)nc1N has Ki strictly less than 10 nM
(A) false (0)

====

biological target: ΔF508-CFTR channel (Homo sapiens, UniProt P13569, DEL508-508); construct: expressed in transfected cells; assay: CFTR potentiator assays (membrane potential assay, IonWorks Quattro assay, ion transport assay); the patent does not say which one gave the values; assay type: cell-based; conditions: cells stably expressing ΔF508-CFTR, forskolin present; values given in μM; read-out: Ki values in the data measurements described above
test.readout: Ki (µM)
Just the number please, in µM, no unit attached.

# count of solved cases: 5
(Q) Report measured Ki; entry is Nc1nc(C(F)(F)F)c(Br)nc1C(=O)Nc1nc(Cc2ccccc2)n[nH]1
(A) 0.02

(Q) Tell me Ki reported for Nc1cc(C(F)(F)F)c(Br)nc1C(=O)Nc1ccn[nH]1
(A) 0.01

(Q) Return Ki for the following molecule: Nc1cc(C(F)(F)F)c(Br)nc1C(=O)Nc1cc(C(F)(F)F)n[nH]1
(A) 0.07

(Q) Provide measured Ki value, entry: Nc1cc(C(F)(F)F)c(Br)nc1C(=O)Nc1n[nH]c2nccnc12
(A) 0.004

(Q) Report Ki, nothing else, for this molecule: Nc1nc(C(F)(F)F)c(Cl)nc1C(=O)Nc1ccn[nH]1
(A) 0.255

Continuing:
(Q) Report Ki, nothing else, for this molecule: Nc1cc(C(F)(F)F)c(Cl)nc1C(=O)Nc1ccn[nH]1
(A) 0.025

(Q) Give the measured Ki for Cc1nnc(-c2ccc(-c3nc(C(=O)Nc4ccn[nH]4)c(N)cc3C(F)(F)F)cc2)o1
(A) 0.16

(Q) Indicate the recorded Ki value for this molecule: Nc1nc(C(F)(F)F)c(Br)nc1C(=O)Nc1[nH]ncc1-c1ccccn1
(A) 1.55
